Biological target: human BRS-3 (Homo sapiens, UniProt P32247)
Construct: expressed in transfected cells
Sequence (P32247 1-399): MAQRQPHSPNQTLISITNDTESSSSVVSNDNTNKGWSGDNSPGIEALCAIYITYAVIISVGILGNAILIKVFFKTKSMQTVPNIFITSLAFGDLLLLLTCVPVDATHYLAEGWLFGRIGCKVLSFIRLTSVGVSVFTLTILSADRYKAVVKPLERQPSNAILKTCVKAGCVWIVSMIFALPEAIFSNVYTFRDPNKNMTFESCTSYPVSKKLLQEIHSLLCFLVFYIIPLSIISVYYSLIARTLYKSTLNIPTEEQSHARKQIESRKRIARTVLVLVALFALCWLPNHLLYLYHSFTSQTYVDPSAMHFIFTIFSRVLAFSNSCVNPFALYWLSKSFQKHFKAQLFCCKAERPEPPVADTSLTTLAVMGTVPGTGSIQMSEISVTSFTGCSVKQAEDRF
Test: BRS-3 receptor binding assay (radioligand filtration)
Settings: selected compounds; read-out: BRS-3 binding IC50
outcomeMeasure: IC50 (nM)

The cases that follow already have their IC50 on record.
CC(C)(C)Cc1c[nH]c(CC(C)(O)c2ccc(-c3ccc(F)cn3)cc2)n1 (centres unmarked): 19
OC(Cc1nc(CC2(C(F)(F)F)CC2)c[nH]1)(c1ccc(-c2ccc(F)cn2)cc1)C(F)(F)F (single isomer, unassigned): 56
CC(O)(Cc1nc(CC2(C(F)(F)F)CC2)c[nH]1)c1ccc(-n2cccn2)cc1 (centres unmarked): 19
CC(C)(C)Cc1c[nH]c(CC(O)(c2ccc(-n3cccn3)cc2)C(F)(F)F)n1 (centres unmarked): 17
CC(C)(C)Cc1c[nH]c(CC(O)(c2ccc(-n3cccn3)cc2)C(F)F)n1 (centres unmarked): 11

[A] OC(Cc1nc(CC2(C(F)(F)F)CC2)c[nH]1)(c1ccc(-n2cccn2)cc1)C(F)F (single isomer, unassigned)
[B] CC(C)(C)Cc1c[nH]c(CC(C)(O)c2ccc(-n3cccn3)cc2)n1 (centres unmarked)
[C] OC(Cc1nc(CC2(C(F)(F)F)CC2)c[nH]1)(c1ccc(-c2ccc(F)cn2)cc1)C(F)F (centres unmarked)
Exercise: Arrange the 3 compounds by rising IC50, starting with the smallest. Return value: ordered labels per request.
Key: A, B, C
